Below is a list of entries, each paired with its recorded AC50 value.
Target: RORγ/γt (Mus musculus, UniProt P51450, T352K)
Sequence (P51450 with tags, fused parts or gaps T352K): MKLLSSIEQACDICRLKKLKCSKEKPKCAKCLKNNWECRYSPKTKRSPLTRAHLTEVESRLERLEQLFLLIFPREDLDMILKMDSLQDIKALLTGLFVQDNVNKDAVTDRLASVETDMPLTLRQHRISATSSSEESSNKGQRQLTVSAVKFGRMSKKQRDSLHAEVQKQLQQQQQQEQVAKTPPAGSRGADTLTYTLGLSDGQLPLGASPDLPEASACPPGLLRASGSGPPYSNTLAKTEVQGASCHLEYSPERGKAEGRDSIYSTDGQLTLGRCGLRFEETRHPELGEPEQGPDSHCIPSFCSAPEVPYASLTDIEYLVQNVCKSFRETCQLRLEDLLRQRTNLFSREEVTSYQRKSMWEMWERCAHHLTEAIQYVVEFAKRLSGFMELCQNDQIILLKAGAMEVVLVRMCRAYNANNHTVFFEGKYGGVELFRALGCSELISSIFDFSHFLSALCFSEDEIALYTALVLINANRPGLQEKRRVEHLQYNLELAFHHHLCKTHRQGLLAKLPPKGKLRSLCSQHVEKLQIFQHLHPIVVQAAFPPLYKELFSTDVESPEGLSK
Assay: RORγ/γt-luc reporter S2 cell assay / HTS (firefly luciferase)

# compound, AC50 / µM
data = [
    ("CCOC(=O)[C@@H]1[C@H]2COc3cc(OC)ccc3[C@@H]2N2C(=O)N(c3ccc(Cl)cc3)C(=O)[C@@]12C [MLS001066268-01]", 8.91),
    ("CCOC(=O)[C@@H]1[C@H]2COc3ccccc3[C@H]2N2C(=O)N(c3ccc(C(F)(F)F)cc3)C(=O)[C@]12C [MLS001066275-01]", 5.01),
    ("CCOC(=O)[C@@H]1[C@H]2COc3ccc(Br)cc3[C@@H]2N2C(=O)N(c3ccc(OC)cc3)C(=O)[C@]12C [MLS001066294-01]", 0.112),
]

* * *

Target: RORγ/γt (Mus musculus, UniProt P51450, T352K)
Experiment: RORγ/γt-luc reporter S2 cell assay / HTS (firefly luciferase)
Details: RORγ/γt HTS concentration response curve class
measure-name: Curve Class

# compound, experimental-system, data-value
rows = [
    ("CCOC(=O)[C@@H]1[C@H]2COc3ccc(Br)cc3[C@H]2N2C(=O)N(c3ccc(F)cc3)C(=O)[C@]12C [MLS001066253-01]", "RORγ/γt (Mus musculus, UniProt P51450, T352K)", 4),
    ("CCOC(=O)[C@@H]1[C@H]2COc3ccc(Br)cc3[C@@H]2N2C(=O)N(c3cccc(F)c3)C(=O)[C@@]12C [MLS001066026-01]", "RORγ/γt (Mus musculus, UniProt P51450, T352K)", "−2.2"),
    ("CCOC(=O)[C@@H]1[C@H]2COc3ccc(Br)cc3[C@H]2N2C(=O)N(c3cccc(F)c3)C(=O)[C@]12C [MLS001066046-01]", "RORγ/γt (Mus musculus, UniProt P51450, T352K)", 4),
    ("CCOC(=O)[C@@H]1[C@H]2COc3ccccc3[C@H]2N2C(=O)N(c3ccc(C(F)(F)F)cc3)C(=O)[C@]12C [MLS001066275-01]", "RORγ/γt (Mus musculus, UniProt P51450, T352K)", 4),
    ("CCOC(=O)[C@@H]1[C@H]2COc3cc(OC)ccc3[C@@H]2N2C(=O)N(c3ccc(C(F)(F)F)cc3)C(=O)[C@@]12C [MLS001066319-01]", "RORγ/γt (Mus musculus, UniProt P51450, T352K)", "−3"),
    ("CCOC(=O)[C@@H]1[C@H]2COc3ccccc3[C@@H]2N2C(=O)N(c3cccc(C)c3)C(=O)[C@]12C [MLS001066305-01]", "RORγ/γt (Mus musculus, UniProt P51450, T352K)", 4),
    ("CCOC(=O)[C@@H]1[C@H]2COc3ccc(Br)cc3[C@@H]2N2C(=O)N(c3ccccc3)C(=O)[C@@]12C [MLS001066232-01]", "RORγ/γt (Mus musculus, UniProt P51450, T352K)", "−2.1"),
    ("CCOC(=O)[C@@H]1[C@H]2COc3cc(OC)ccc3[C@@H]2N2C(=O)N(c3cccc(Cl)c3)C(=O)[C@@]12C [MLS001066281-01]", "RORγ/γt (Mus musculus, UniProt P51450, T352K)", "−2.2"),
    ("CCOC(=O)[C@@H]1[C@H]2COc3cc(OC)ccc3[C@@H]2N2C(=O)N(c3cccc(F)c3)C(=O)[C@]12C [MLS001066241-01]", "RORγ/γt (Mus musculus, UniProt P51450, T352K)", 4),
    ("CCOC(=O)[C@@H]1[C@H]2COc3cc(OC)ccc3[C@H]2N2C(=O)N(c3cccc(Cl)c3)C(=O)[C@]12C [MLS001066301-01]", "RORγ/γt (Mus musculus, UniProt P51450, T352K)", 4),
    ("CCOC(=O)[C@@H]1[C@H]2COc3ccccc3[C@H]2N2C(=O)N(c3cccc(Cl)c3)C(=O)[C@@]12C [MLS001066306-01]", "RORγ/γt (Mus musculus, UniProt P51450, T352K)", 4),
    ("CCOC(=O)[C@H]1[C@H]2COc3cc(OC)ccc3[C@@H]2N2C(=O)N(c3cccc(Cl)c3)C(=O)[C@@]12C [MLS001066321-01]", "RORγ/γt (Mus musculus, UniProt P51450, T352K)", 4),
    ("CCOC(=O)[C@@H]1[C@H]2COc3ccc(Br)cc3[C@@H]2N2C(=O)N(c3ccc(C)cc3)C(=O)[C@]12C [MLS0010660292-01]", "RORγ/γt (Mus musculus, UniProt P51450, T352K)", 4),
]

* * *

Below is a list of entries, each paired with its recorded AC50 value.
Molecular target: RORγ/γt (Mus musculus, UniProt P51450, T352K)
Experiment: RORγ/γt-luc reporter S2 cell assay / HTS (firefly luciferase)

# molecule, AC50 / nM
data = [
    ("CCOC(=O)[C@@H]1[C@H]2COc3ccccc3[C@H]2N2C(=O)N(c3ccc(C)cc3)C(=O)[C@]12C [MLS001066453-01]", 282),
    ("CCOC(=O)[C@@H]1[C@H]2COc3ccc(Br)cc3[C@H]2N2C(=O)N(c3ccc(F)cc3)C(=O)[C@@]12C [MLS001066263-01]", 4.5),
    ("CCOC(=O)[C@@H]1[C@H]2COc3cc(OC)ccc3[C@@H]2N2C(=O)N(c3ccc(F)cc3)C(=O)[C@]12C [MLS001066228-01]", 141),
    ("CCOC(=O)[C@@H]1[C@H]2COc3ccccc3[C@H]2N2C(=O)N(c3cccc(Cl)c3)C(=O)[C@@]12C [MLS001066306-01]", 7080),
    ("CCOC(=O)[C@@H]1[C@H]2COc3ccccc3[C@H]2N2C(=O)N(c3ccc(Cl)cc3)C(=O)[C@@]12C [MLS001066454-01]", 11200),
    ("CCOC(=O)[C@@H]1[C@H]2COc3cc(OC)ccc3[C@@H]2N2C(=O)N(c3cccc(Cl)c3)C(=O)[C@]12C [MLS001066291-01]", 112),
    ("CCOC(=O)[C@@H]1[C@H]2COc3cc(OC)ccc3[C@@H]2N2C(=O)N(c3cccc(F)c3)C(=O)[C@]12C [MLS001066241-01]", 3980),
]

* * *

Below is a list of entries, each paired with its recorded percentage of mouse Th17 cells (IL17a production) value.
System: mouse Th17 cell differentiation
Experiment: Cytokine induced mouse Th17 cell differentiation (IL17a production, FACS)
Assay type: cell-based
Settings: 20 μM; DMSO 17% Th17; compound added Day 1, analyzed Day 4
measure-name: percentage of mouse Th17 cells (IL17a production) (%)

# compound, data-value
measured = [
    ("O=C(NC(=S)Nc1nc(-c2ccccc2)cs1)c1cccnc1", 27.7),
    ("O=C(CCCOc1ccccc1)Nc1nc2ccccc2[nH]1", 9.9),
    ("CC(C)(C)c1ccc(-c2noc(CCC(=O)Nc3cccnc3)n2)cc1", 8.3),
    ("COc1ccc(C(=O)/C=C/c2ccc(OC)cc2OC)c(O)c1", 11.9),
    ("Cc1ccc(Sc2cncc3sc(C(N)=O)cc23)cc1", 3.6),
    ("Cc1cccc(-c2nc3cc(NC(=O)C4CCCO4)ccc3o2)c1 (centres unmarked)", 11.9),
    ("CCOC(=O)c1sc(NC(=O)c2cc3c(s2)CCC(C)C3)nc1C (centres unmarked)", 12.1),
]

* * *

Biological target: RORγ/γt (Mus musculus, UniProt P51450, T352K)
Experiment: RORγ/γt-luc reporter S2 cell assay / HTS (firefly luciferase)
Dear colleague, classification is by IC50, with ranges listed here: lower band = under 2 µM, central band = from 2 µM up to 9 µM, upper band = 9 µM and over

# compound, experimental-system, label-value
measured = [
    ("O=C(NC(=S)Nc1nc(-c2ccccc2)cs1)c1cccnc1", "RORγ/γt (Mus musculus, UniProt P51450, T352K)", "upper band"),
    ("C=C1NN=C(c2ccccc2Br)N1N=Cc1ccc(N(CC)CC)cc1", "RORγ/γt (Mus musculus, UniProt P51450, T352K)", "central band"),
    ("O=C(CCCOc1ccccc1)Nc1nc2ccccc2[nH]1", "RORγ/γt (Mus musculus, UniProt P51450, T352K)", "central band"),
    ("O=C(/C=C/c1ccc(S(=O)(=O)N2CCOCC2)cc1)NC(=S)Nc1ccc(N2CCOCC2)cc1", "RORγ/γt (Mus musculus, UniProt P51450, T352K)", "central band"),
    ("COc1ccc(OC)c(NC(=S)N(CCc2c(C)[nH]c3ccccc23)Cc2cccs2)c1", "RORγ/γt (Mus musculus, UniProt P51450, T352K)", "upper band"),
    ("C=C1NN=C(c2cc(-c3cccc(OCC)c3)nc3ccccc23)N1CC", "RORγ/γt (Mus musculus, UniProt P51450, T352K)", "central band"),
    ("CN1CCN(C(=O)CCN2C(=O)/C(=C\\c3ccccc3F)SC2=S)CC1", "RORγ/γt (Mus musculus, UniProt P51450, T352K)", "upper band"),
    ("CCOC(=O)c1sc(NC(=O)c2cc3c(s2)CCC(C)C3)nc1C (stereo not shown)", "RORγ/γt (Mus musculus, UniProt P51450, T352K)", "lower band"),
    ("Cc1ccc(Sc2cncc3sc(C(N)=O)cc23)cc1", "RORγ/γt (Mus musculus, UniProt P51450, T352K)", "lower band"),
]
